The reported measurements were obtained from ChEMBL document CHEMBL1155909.

- experimental.protocol: Clearance in rat at 0.3 mg/kg, iv
- Assay type: ADME, organism-based
- Design: dose 0.3 mg/kg, route intravenous
- conditions.used: in vivo

# entry.smiles, clearance
records = [
    ("COc1cc2c(cc1CN[C@H]1CCCN[C@H]1c1ccccc1)[C@](C)(C(F)(F)F)OCC2", "11 mL/min/kg"),
]

---

- Test system: Mustela putorius furo
- experimental.protocol: Antiemetic activity against cisplatin-induced emesis in sc dosed ferrets
- Type: functional, organism-based
- conditions.used: Mustela putorius, sc; read-out: ED90
experimental.endpoint: ED90 (mg/kg)

# compound, experimental.endpoint, measured
data = [
    ("COc1cc2c(cc1CN[C@H]1CCCN[C@H]1c1ccccc1)C(C)(C(F)(F)F)OC2 (mixture of isomers; 15)", "ED90", 0.05),
    ("COc1cc2c(cc1CN[C@H]1CCCN[C@H]1c1ccccc1)C(C(F)(F)F)CC2 (mixture of isomers; 10)", "ED90", 0.12),
    ("COc1ccc(C(C(F)(F)F)C(F)(F)F)cc1CN[C@H]1CCCN[C@H]1c1ccccc1", "ED90", 0.48),
    ("COc1ccc(C(C)(C)C(F)(F)F)cc1CN[C@H]1CCCN[C@H]1c1ccccc1", "ED90", 0.21),
    ("COc1ccc(C(C)C)cc1CN[C@H]1C2CCN(CC2)[C@H]1C(c1ccccc1)c1ccccc1", "ED90", 2.1),
    ("COc1ccc(OC(F)(F)F)cc1CN[C@H]1CCCN[C@H]1c1ccccc1", "ED90", 0.09),
    ("COc1cc2c(cc1CN[C@H]1CCCN[C@H]1c1ccccc1)C(C(F)(F)F)CCC2 (mixture of isomers; 17)", "ED90", 0.17),
    ("COc1cc2c(cc1CN[C@H]1CCCN[C@H]1c1ccccc1)[C@](C)(C(F)(F)F)OCC2", "ED90", 0.07),
]
